Recorded values, source patent US20120269817A1.

Target: T1, human tissue factor pathway inhibitor (TFPI) (human, UniProt P10646 29-304, limits assumed); note: test concentration or dose not given here
T1 sequence (looked up): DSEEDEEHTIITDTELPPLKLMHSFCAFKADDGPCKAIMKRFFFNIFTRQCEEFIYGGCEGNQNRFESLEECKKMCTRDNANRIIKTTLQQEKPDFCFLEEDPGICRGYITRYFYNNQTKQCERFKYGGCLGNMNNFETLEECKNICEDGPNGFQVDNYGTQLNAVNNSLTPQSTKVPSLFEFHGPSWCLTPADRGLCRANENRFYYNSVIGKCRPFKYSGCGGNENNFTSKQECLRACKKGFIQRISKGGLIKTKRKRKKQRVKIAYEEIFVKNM
Assay: cell-based or functional assay
Each entry below carries its recorded dPT in hemoA plasma.
Property: dPT in hemoA plasma

Binder: TP-2E5 Fab (Fab, V domains shown, Human Fab from HuCal Gold, expressed in E. coli TG1) VH: QVQLQQSGPGLVKPSQTLSLTCAISGDSVSSNSAAWSWIRQSPGRGLEWLGMIFYRSKWNNDYAVSVKSRITINPDTSKNQFSLQLNSVTPEDTAVYYCARVNANGYYAYVDLWGQGTLVTVSS VL: DIQMTQSPSSLSASVGDRVTITCRASQPIYNSLSWYQQKPGKAPKLLIYGVSNLQSGVPSRFSGSGSGTDFTLTISSLQPEDFAVYYCLQVDNLPITFGQGTKVEIKR
Result: 79 s
//
Binder: TP-3A4 Fab (Fab, V domains shown, Human Fab from HuCal Gold, expressed in E. coli TG1) VH: QVQLVESGGGLVQPGGSLRLSCAASGFTFSSYWMHWVRQAPGKGLEWVSSISYDSSNTYYADSVKGRFTISRDNSKNTLYLQMNSLRAEDTAVYYCARYGGMDYWGQGTLVTVSS VL: DIELTQPPSVSVAPGQTARISCSGDNLRDKYASWYQQKPGQAPVLVIYSKSERPSGIPERFSGSNSGNTATLTISGTQAEDEADYYCSSYTLNPNLNYVFGGGTKLTVLG
Result: 72.3 s
//
Binder: TP-2A5.1 Fab (Fab, V domains shown, Human Fab from HuCal Gold, expressed in E. coli TG1) VH: QVQLVESGGGLVQPGGSLRLSCAASGFTFSSYGSWVRQAPGKGLEWVSVISGSGSSTYYADSVKGRFTISRDNSKNTLYLQMNSLRAEDTAVYYCARVNISTHFDVWGQGTLVTVSS VL: DIELTQPPSVSVAPGQTARISCSGDNIPEKYVHWYQQKPGQAPVLVIHGDNNRPSGIPERFSGSNSGNTATLTISGTQAEDEADYYCQSFDAGSYFVFGGGTKLTVLG
Result: 70.8 s
//
Binder: TP-3C1 Fab (Fab, V domains shown, Human Fab from HuCal Gold, expressed in E. coli TG1; Shares its VL with TP-2G9 and its VH with TP-3F2) VH: QVQLVESGGGLVQPGGSLRLSCAASGFTFSSYSMHWVRQAPGKGLEWVSGISYSSSFTYYADSVKGRFTISRDNSKNTLYLQMNSLRAEDTAVYYCARALGGGVDYWGQGTLVTVSS VL: DIALTQPASVSGSPGQSITISCTGTSSDLGGFNTVSWYQQHPGKAPKLMIYSVSSRPSGVSNRFSGSKSGNTASLTISGLQAEDEADYYCQSYDLNNLVFGGGTKLTVLG
Result: 72.3 s
